# System: K4 kissing-loop RNA reporter;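 further: bound reporter read as fluorescence of individual clusters on recovered sequencing chips by microscopy, with normalized cluster intensities fitted with a binding model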
# ASSAY_NOTES: apparent KD of K4 kissing-loop reporter; higher = weaker reporter binding
# PROTOCOL_CONDITIONS: Eterna round: R107; input ligand: theophylline 20 uM
ENDPOINT_LABEL: apparent KD of K4 kissing-loop reporter (nM)
Write the value in nM as a bare number.

INSERT INTO results (monomer_sequence, value_measured) VALUES
  ('AGAACUGUCUGAGAUACCAGCUAAGGAGUGAUGUUCCUAAGUCCACGAAAGUGGACUCAUAGCCCUUGGCAGCUCAGACAGUUCA [#24 K4 Theophylline B Same State]', 565),
  ('GGAGGCUAUGCAGGAUAUAGUCGGUUGAGUGAUGUUUAACGACUAAACCUUCUAAGUCACAGCCCGCUAGAAGGGCAUAGCCUCC', 229),
  ('GCGGCGGGCCAAGGAUAUAUUUUGGAGUGAUGUUGUUCAUUUAUUUGAGCUAGUGAUGUUGGUCGAAUAGAAGGUGGCCCGCCGC [whbob_Ex_FMNB__2th219]', 35.9);

Request: Recall the reported apparent KD of K4 kissing-loop reporter of AAACGUUGGUGCGAUACCAGCUUGAUCGGUAAACGAUCUACUGGAGUGAUGUUCCUAAAUAGCCCUUGGCAGCGCACCGACGAAA [MAT - Same State Theophlline B - Mod of Eli - D8] on K4 kissing-loop RNA reporter and write it down.
Result: 128

Request: Recall the reported apparent KD of K4 kissing-loop reporter of GGGAAGAAGGCGGCCGCCACUGCAGAAGAGACAGAGAGGGAAGAAGAGGAGUGAUGUUCCAAGAACAGGACCGGGCCAAGAAGGG [whbob_SS_Tryp_B_t29] on K4 kissing-loop RNA reporter and write it down.
Result: 284

Request: Recall the reported apparent KD of K4 kissing-loop reporter of GUUAUGGACCUGGAUACCAGCUGGUACAAGGUCGGUCUACAUGAGUGAUGUUCAUGUGUCAGCCCUUGGCAGCCAGCAACCGGCA [KL-XTheo-B10] on K4 kissing-loop RNA reporter and write it down.
Result: 119

Request: Recall the reported apparent KD of K4 kissing-loop reporter of CCUAUCUCAUACGAUACCAGUGAAUAACCAGUGAUGUUGGAAUAACCAAGGAAUAUUUUACACCCUUGGCAGCGUAUGGGAUAGG [Ex Theophylline B K4 25] on K4 kissing-loop RNA reporter and write it down.
Result: 270

Request: Recall the reported apparent KD of K4 kissing-loop reporter of UUGAGUGAUGUUCAAUUAAUGUGCAACGAUACCAGCUCAUAUGCUAGCCCUUGGCAGCGUGGUAACGUAAUUUUAUCAAAUGAUA [theeternabot_exclusion_KL_Theo_A_39] on K4 kissing-loop RNA reporter and write it down.
Result: 205

Request: Recall the reported apparent KD of K4 kissing-loop reporter of GCAGUGAUGUUGCGAAUCGGCCAUGAUGCAGAGGAUAUCGUGCCUUCGAGAAGGUUGUAUAGAGGAUACGAUACUAUUAAUGACG [Same State FMN A GF 6] on K4 kissing-loop RNA reporter and write it down.
Result: 413

Request: Recall the reported apparent KD of K4 kissing-loop reporter of AGAGUGAUGUUUUUUUGAAGUGAGUAAAGUCGAGGACCGGUACGGCCGCCACUCGAGUGAUGUUAGUGAUGUUGAUGUAGUGAUG [xxzmullin] on K4 kissing-loop RNA reporter and write it down.
Result: 105

---

# Test system: MS2 coat protein
# ASSAY_NOTES: apparent KD of MS2 coat protein; designed switch direction (-1 OFF switch, 1 ON switch): -1; higher = weaker reporter binding
# PROTOCOL_CONDITIONS: Eterna round: R95; input ligand: FMN 200 uM
Listed below: apparent KD of MS2 coat protein values for each entry.
Write the value in nM as a bare number.

Consider the reported apparent KD of MS2 coat protein for these sequences:
INSERT INTO results (monomer_sequence, endpoint_label, value_measured) VALUES
  ('GCAGGAUAAGUUAGGAUAUACCUAUGGAUACAUAGGUAGAAGGGACAUGAGGAUCACCCAUGUGACUCACCUGC [Fiskers BMX 4 - 63] (puzzle: Brourd''s mod of Exclusion 4)', 'apparent KD of MS2 coat protein', 33.5),
  ('UAUUAACAAGCAAGAUCCCACAUGAGGAUCACCCAUGUGCUCGUCUUGUAAGGUACUGUGACGAAAGUCACGGUACC [Sensor 3, v1 - 84] (puzzle: Sensor v3, turn-off variant 1)', 'apparent KD of MS2 coat protein', 13.9),
  ('AGUACUAACACGAAAGUGUUAGUACAAUAAGCUUGUGAAACAUGAGGAUCACCCAUGUCCUCAUAAGCUCGUCUUAU [salish99_TOv2_r3_001again] (puzzle: Sensor v3, turn-off variant 2)', 'apparent KD of MS2 coat protein', 16.7);

Request: Consider the sequence UAUUAGCAAGCUAGAUCCCACAUGAGGAUCACCCAUGUGCUCGUCUUAUAAGGUACUGUGACGAAAGUCACGGUACC [Sensor 3, v1 - 96] (puzzle: Sensor v3, turn-off variant 1) . State its measured apparent KD of MS2 coat protein.
Result: 56.8

Request: Consider the sequence GAAAAGGUAGGAUAUACGAAAAAAAAGGGUAGAAAAAAAACACAUGAGGAUCACCCAUGUAGAAGGACCAAGAG [salish99_ex2_r3_039] (puzzle: Exclusion 2) . State its measured apparent KD of MS2 coat protein.
Result: 61.7

Request: Consider the sequence UGGCUGCUCAGGGAGUGUGACAUGAGGAUCACCCAUGUGGUGGUAGGGAACAAGCUUUUUGCACGUACUUAUGAGUC [JR_SV3TOV1_Sub009] (puzzle: Sensor v3, turn-off variant 1) . State its measured apparent KD of MS2 coat protein.
Result: 840

Request: Consider the sequence GGUCGAAAACAGCUCCGCGCUGCCCUCGACCGCUCAUUUACAUGAGGAUCACCCAUGUUUUUUGCUUGUCUUGUUUC [Esrionus] (puzzle: Sensor v3, turn-off variant 2) . State its measured apparent KD of MS2 coat protein.
Result: 18.3

Request: Consider the sequence AAGAAACAUGAGGAUCACCCAUGUGAGGAUAUGACUAAGAAAAGAAAAGAAAGAAGAGUCAGAAGGCACAAAGG [salish99-ex1_r3_068] (puzzle: Exclusion 1) . State its measured apparent KD of MS2 coat protein.
Result: 215

Request: Consider the sequence CUAGAGCGAGGAUAUACAUGAGGAUCACCCAUGUGGCAGCCGGGUAGGAGUGACGUCGGUAGAAGGCGCACCCG [Anrate] (puzzle: Exclusion 3) . State its measured apparent KD of MS2 coat protein.
Result: 27.5

Request: Consider the sequence AAGAAACAUGAGGAUCACCCAUGUGAGGAUAUGAAAAAGAAAAUAAAAUAAAGAAGAAUCAGAAGGCACAAAGG [Mat - Mod of Hog D4] (puzzle: Exclusion 1) . State its measured apparent KD of MS2 coat protein.
Result: 34

Request: Consider the sequence GAAAAGGUAGGAUAUACGAAAUAAAAGGGUAGAAAAAAAACACAUGAGGAUCACCCAUGUAGAAGGACCAAAAG [salish99_ex2_r3_084] (puzzle: Exclusion 2) . State its measured apparent KD of MS2 coat protein.
Result: 52.9

Request: Consider the sequence CGGGAGGGACAAGCUUUUUGCACGUCUGUUAUUGAUGCUACAUGAGGAUCACCCAUGUUUAAGAUGUGUGAGGAUGG [JR_SV3TOV2_Sub053] (puzzle: Sensor v3, turn-off variant 2) . State its measured apparent KD of MS2 coat protein.
Result: 26.2

Request: Consider the sequence UACUAUAAGGAGGAUAUCGUAUCGGAAACGAUACGAGAAGGCUUAACAUGAGGAUCACCCAUGUUCUUCAAUAU [Fiskers Ex 6 - 26] (puzzle: Exclusion 6) . State its measured apparent KD of MS2 coat protein.
Result: 16

Request: Consider the sequence UUUAAUUUUUUUUUUUUACAAGCUUUUUGCUCGUCUUAUACAUGAGGAUCACCCAUGUGGGUGGAAGGUAAAUUAUC [JMF 70] (puzzle: Sensor v3, turn-off variant 2) . State its measured apparent KD of MS2 coat protein.
Result: 79.4

Request: Consider the sequence AAGGAUAGAGGAUAUACAUAGAUACAGGUUCAUGUAGAACUACAUGAGGAUCACCCAUGUAGAAGGCUAUCCUA [Fiskers Ex 2 - 8] (puzzle: Exclusion 2) . State its measured apparent KD of MS2 coat protein.
Result: 113

Request: Consider the sequence ACGUAACGAGCUUGGUCCAACAUGAGGAUCACCCAUGUGCUCGUCUUAUAACGUACUGUCACGUUAGUGAUAGUGCG [Sensor v3, turn-off variant 1 (MOD of Eli's v1-13 v.6)] (puzzle: Sensor v3, turn-off variant 1) . State its measured apparent KD of MS2 coat protein.
Result: 286

Request: Consider the sequence GAUAGGACGUGGUCAGGUAACAUGAGGAUCACCCAUGUAGGUCUAGGAACAAGCUUUUUGAAAGCUCGUCUUAUAAA [JR_SV3TOV1_Sub056] (puzzle: Sensor v3, turn-off variant 1) . State its measured apparent KD of MS2 coat protein.
Result: 17.4

Request: Consider the sequence GAAAAGGUAGGAUAUACGAUAAAAAAGGGUAGAAAAAAAACACAUGAGGAUCACCCAUGUAGAAGGACCAAAAG [salish99_ex2_r3_086] (puzzle: Exclusion 2) . State its measured apparent KD of MS2 coat protein.
Result: 95.2

Request: Consider the sequence AGACAGUCAGGAUAUACAUGAGGAUCACCCAUGUUGAGAUGAGAAAGGGCAGGAAGAGGUAGAAGGGACAAGAG [JR_Exclu3_Sub036] (puzzle: Exclusion 3) . State its measured apparent KD of MS2 coat protein.
Result: 25

Request: Consider the sequence CAUGAUCUUCGGAUCAUGUACAUGAGGAUCACCCAUGUGACGAGUAUAUCCUCAAACAAGCUUUUUGCUCGUCUUAU [Sensor v3 - Turn-off variant 1 - 22] (puzzle: Sensor v3, turn-off variant 1) . State its measured apparent KD of MS2 coat protein.
Result: 299
